- assay.explanation: Plasma chemistry markers after subcutaneous administration in CD-1 mice (Example 6)
- Type: in vivo
- test.parameters: CD-1 mice plasma at day 46; 50 mg/kg subcutaneously twice a week for 7 weeks
AST listing for selected substances.
Express the result in IU/L but write the number alone.

Request the reported AST associated with 798781 (CGTAAGATTCACAGCA; 3-10-3 cEt gapmer, further chemistry not given here) [compound 798781] 66

====

- Tested on: human SMAD7 mRNA
- assay.explanation: Dose-dependent inhibition of human SMAD7 mRNA expression in Hep3B cells (Example 3, Study 1 and 2)
- Format: cell-based
- test.parameters: 20000.0 nM, electroporation, approximately 16 hours, Study 2
Strand notation (5' to 3'): a small letter for the sugar, then the base; units joined by * are phosphorothioate-linked, units joined directly phosphodiester-linked; [ ] holds rarer units or linkages, { } end groups; capitals alone tell only the bases. k = constrained ethyl (cEt); [5mC] = 5-methylcytosine; d = 2'-deoxy (DNA)
Please note: 1 applies when % inhibition of SMAD7 mRNA expression is 70% or greater, and 0 applies otherwise.

Please review the entries below; each comes with its answer.
substance="798781 (CGTAAGATTCACAGCA; 3-10-3 cEt gapmer, further chemistry not given here) [compound 798781]" tested_system="human SMAD7 mRNA" label_value=1
substance="799572 (kA*k[5mC]*k[5mC]*dA*dT*d[5mC]*dT*dA*dA*d[5mC]*dA*dA*d[5mC]*kA*kT*k[5mC]; antisense) [compound 799572]" tested_system="human SMAD7 mRNA" label_value=0
substance="772858 (kA*kG*kT*dG*dT*dT*d[5mC]*dA*dA*d[5mC]*dA*dA*dT*kG*k[5mC]*kT; antisense) [compound 772858]" tested_system="human SMAD7 mRNA" label_value=0
substance="790636 (kA*kG*k[5mC]*dA*dT*d[5mC]*dT*dG*dG*dA*d[5mC]*dA*dG*kT*k[5mC]*kA; antisense) [compound 790636]" tested_system="human SMAD7 mRNA" label_value=1
substance="830144 (antisense kG*kG*kG*dT*dG*dT*dG*d[5mC]*dA*d[5mC]*d[5mC]*dA*dG*kG*kT*kG) [compound 830144]" tested_system="human SMAD7 mRNA" label_value=1

Could you please find out whether 830131 (antisense k[5mC]*k[5mC]*k[5mC]*dA*d[5mC]*d[5mC]*dT*d[5mC]*d[5mC]*dG*dA*dG*dG*k[5mC]*kA*k[5mC]) [compound 830131] has % inhibition of SMAD7 mRNA expression that meets 70% or exceeds it? 0

Follow-up item: 799318 (antisense kG*kT*kG*dG*dA*dT*dT*dT*dG*dA*dA*dA*dA*kG*kG*kG) [compound 799318] 1

Follow-up item: 799364 (kT*k[5mC]*k[5mC]*dG*dA*dG*dT*dT*dA*dT*d[5mC]*d[5mC]*d[5mC]*k[5mC]*kA*kT; antisense) [compound 799364] 1

Follow-up item: 799402 (antisense kG*kG*kT*d[5mC]*dA*d[5mC]*dT*dG*dT*dT*d[5mC]*dT*d[5mC]*kT*k[5mC]*kT) [compound 799402] 0

Follow-up item: 830097 (k[5mC]*k[5mC]*kA*dT*d[5mC]*dT*dA*dA*d[5mC]*dA*dA*d[5mC]*dA*kT*k[5mC]*k[5mC]; antisense) [compound 830097] 1
